- measurementTarget: T1, cynomolgous monkey CD25 (cynomolgous monkey)
- T1 construct: also called cmCD25; cm
- experimentNotes: SPR (BIAcore), cynomolgous CD25
measuredEndpoint: pKd
As a rule, pKd stands for the negative log10 of the concentration, concentration in M.

IN: Give the measured pKd of Variant C55 (antibody, V domains shown) VH: QVQLVQSGAEVKKPGSSVKVSCKASGYTFTSYRMHWVRQAPGQGLEWMGYISPKKGRTEYNQKFKDKATITADESTNTAYMELSSLRSEDTAVYYCARGGGVFDYWGQGTLVTVSS VL: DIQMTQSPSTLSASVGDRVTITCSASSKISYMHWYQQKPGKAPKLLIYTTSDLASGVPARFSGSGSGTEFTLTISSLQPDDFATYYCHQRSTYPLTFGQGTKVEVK .
OUT: 10.31

Hello, the source for this data is patent US20200308290A1, in case you need it.
